target: UniProt Q8TEK3
Sequence (Q8TEK3 whole entry): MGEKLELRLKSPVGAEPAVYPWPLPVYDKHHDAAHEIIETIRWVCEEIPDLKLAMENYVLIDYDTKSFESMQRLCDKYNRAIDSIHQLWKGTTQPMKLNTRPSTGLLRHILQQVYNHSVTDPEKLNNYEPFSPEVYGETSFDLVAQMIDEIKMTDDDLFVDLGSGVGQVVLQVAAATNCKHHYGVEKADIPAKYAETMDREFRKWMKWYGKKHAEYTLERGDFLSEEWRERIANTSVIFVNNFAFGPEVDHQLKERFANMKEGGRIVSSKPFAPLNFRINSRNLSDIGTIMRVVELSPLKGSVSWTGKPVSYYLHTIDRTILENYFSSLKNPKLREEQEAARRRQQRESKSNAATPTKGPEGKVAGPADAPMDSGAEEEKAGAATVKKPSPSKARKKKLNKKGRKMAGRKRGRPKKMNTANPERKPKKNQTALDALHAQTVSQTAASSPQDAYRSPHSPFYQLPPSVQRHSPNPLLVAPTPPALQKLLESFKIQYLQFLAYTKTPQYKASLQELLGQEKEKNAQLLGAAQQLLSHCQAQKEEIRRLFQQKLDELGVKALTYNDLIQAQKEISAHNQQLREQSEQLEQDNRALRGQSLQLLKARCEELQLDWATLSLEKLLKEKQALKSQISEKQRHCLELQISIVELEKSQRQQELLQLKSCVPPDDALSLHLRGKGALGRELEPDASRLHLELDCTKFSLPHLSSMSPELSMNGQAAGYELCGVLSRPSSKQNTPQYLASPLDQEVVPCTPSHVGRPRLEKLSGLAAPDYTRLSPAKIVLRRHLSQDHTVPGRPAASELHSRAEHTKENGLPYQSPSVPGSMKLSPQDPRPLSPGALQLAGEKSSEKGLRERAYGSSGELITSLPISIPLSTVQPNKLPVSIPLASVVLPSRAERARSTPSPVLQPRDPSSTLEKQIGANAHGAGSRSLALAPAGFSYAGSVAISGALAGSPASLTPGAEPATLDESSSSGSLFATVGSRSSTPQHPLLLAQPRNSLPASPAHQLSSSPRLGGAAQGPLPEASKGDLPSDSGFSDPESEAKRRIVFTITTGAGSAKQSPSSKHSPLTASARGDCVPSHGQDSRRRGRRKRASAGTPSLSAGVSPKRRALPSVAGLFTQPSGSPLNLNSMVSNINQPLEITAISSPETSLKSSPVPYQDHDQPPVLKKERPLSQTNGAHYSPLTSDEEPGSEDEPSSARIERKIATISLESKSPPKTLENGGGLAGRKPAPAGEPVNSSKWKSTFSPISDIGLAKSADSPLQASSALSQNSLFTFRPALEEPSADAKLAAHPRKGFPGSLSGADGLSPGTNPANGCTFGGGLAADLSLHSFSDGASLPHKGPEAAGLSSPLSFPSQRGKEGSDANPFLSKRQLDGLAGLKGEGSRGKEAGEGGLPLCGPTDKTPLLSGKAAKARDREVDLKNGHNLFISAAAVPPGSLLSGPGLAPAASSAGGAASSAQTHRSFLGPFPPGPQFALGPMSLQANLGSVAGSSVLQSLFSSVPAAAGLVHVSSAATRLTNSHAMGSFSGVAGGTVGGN
Endpoint: IC50 (nM)
Expressed in nM, but write only the number.

Fill: IC50 (UniProt Q8TEK3) for this molecule CC(C)(C)c1ccc(C/C(=N\O)C(=O)NCC[Se]Sc2ccccc2)cc1 363

---

test system: MDA-MB-231 TNBC cells; experiment: SRB cell proliferation assay, MDA-MB-231; assay type: cell-based, human; settings: Homo sapiens, MDA-MB-231; 72 h, SRB assay
IC50 overview

For orientation, consider the following solved cases.
O=C(NCC[Se]Sc1ccccc1)/C(Cc1ccc(Br)cc1)=N/O
400 nM
CC(C)N(C[C@H]1O[C@@H](n2cnc3c(N)ncnc32)[C@H](O)[C@@H]1O)[C@H]1C[C@@H](CCc2nc3cc(C(C)(C)C)ccc3[nH]2)C1 [EPZ-5676, reference compound]
> 50000 nM
CCOc1ccc(C/C(=N\O)C(=O)NCC[Se]Sc2ccccc2)cc1
170 nM
O=C(NCC[Se]Sc1ccccc1)/C(Cc1ccc(O)c(F)c1)=N/O
230 nM
O=C(NCC[Se]Sc1ccccc1)/C(Cc1ccc([N+](=O)[O-])cc1)=N/O
190 nM

For the compound O=C(NCC[Se]Sc1ccccc1)/C(Cc1ccc(O)c(Cl)c1)=N/O , give its measured IC50 value. 250 nM

Return reported IC50. Input compound: O=C(NCC[Se]Sc1ccccc1)/C(Cc1ccc(Cl)cc1)=N/O 470 nM

Answer with reported IC50 of O=C(NCC[Se]Sc1ccccc1)/C(Cc1ccc(OCc2ccccc2)cc1)=N/O 180 nM

Please indicate IC50 recorded for O=C(NCC[Se]Sc1ccccc1)/C(Cc1ccc(O)c(Br)c1)=N/O 210 nM

---

test system: MDA-MB-231 TNBC cells; test: SRB cell proliferation assay, MDA-MB-231; format: cell-based, human; conditions: Homo sapiens, MDA-MB-231; 72 h, SRB assay
Mark fulfilled only when IC50 stays strictly below 200 nM. Values equal to the cut-off are not fulfilled.

O=C(NCC[Se]Sc1ccccc1)/C(Cc1ccc(Cl)c(Cl)c1)=N/O [9g]
not fulfilled
O=C(NCCSSCCNC(=O)/C(Cc1ccc(O)c(Br)c1)=N/O)/C(Cc1ccc(O)c(Br)c1)=N/O [Psammaplin A (PsA), Psammaplin A]
not fulfilled

IC50 strictly < 200 nM for this compound? CC(=O)O[C@H]1C(=O)[C@@]2(C)[C@H]([C@H](OC(=O)c3ccccc3)[C@]3(O)C[C@H](OC(=O)[C@H](O)[C@@H](NC(=O)c4ccccc4)c4ccccc4)C(C)=C1C3(C)C)[C@]1(OC(C)=O)CO[C@@H]1C[C@@H]2O [Paclitaxel, reference compound] fulfilled

For CC(C)(C)c1ccc(C/C(=N\O)C(=O)NCC[Se]Sc2ccccc2)cc1 [9l] , is the recorded IC50 below the cut-off of 200 nM? fulfilled

Decide: IC50 of O=C(NCC[Se]Sc1ccccc1)/C(Cc1ccc(F)cc1)=N/O [9d] strictly below 200 nM? not fulfilled

is_below(IC50, 200 nM) for O=C(NCC[Se]Sc1ccccc1)/C(Cc1ccc(F)c(F)c1)=N/O [9e] ? not fulfilled

In plain terms, does O=C(NCC[Se]Sc1ccccc1)/C(Cc1ccccc1)=N/O [9b] come in under 200 nM for IC50? not fulfilled

Just wondering, is IC50 of O=C(NCC[Se]Sc1ccccc1)/C(Cc1ccc2ccccc2c1)=N/O [9c] below 200 nM? not fulfilled
